- measured target: Fes (UniProt P07332)
- Sequence (P07332 whole entry, looked up): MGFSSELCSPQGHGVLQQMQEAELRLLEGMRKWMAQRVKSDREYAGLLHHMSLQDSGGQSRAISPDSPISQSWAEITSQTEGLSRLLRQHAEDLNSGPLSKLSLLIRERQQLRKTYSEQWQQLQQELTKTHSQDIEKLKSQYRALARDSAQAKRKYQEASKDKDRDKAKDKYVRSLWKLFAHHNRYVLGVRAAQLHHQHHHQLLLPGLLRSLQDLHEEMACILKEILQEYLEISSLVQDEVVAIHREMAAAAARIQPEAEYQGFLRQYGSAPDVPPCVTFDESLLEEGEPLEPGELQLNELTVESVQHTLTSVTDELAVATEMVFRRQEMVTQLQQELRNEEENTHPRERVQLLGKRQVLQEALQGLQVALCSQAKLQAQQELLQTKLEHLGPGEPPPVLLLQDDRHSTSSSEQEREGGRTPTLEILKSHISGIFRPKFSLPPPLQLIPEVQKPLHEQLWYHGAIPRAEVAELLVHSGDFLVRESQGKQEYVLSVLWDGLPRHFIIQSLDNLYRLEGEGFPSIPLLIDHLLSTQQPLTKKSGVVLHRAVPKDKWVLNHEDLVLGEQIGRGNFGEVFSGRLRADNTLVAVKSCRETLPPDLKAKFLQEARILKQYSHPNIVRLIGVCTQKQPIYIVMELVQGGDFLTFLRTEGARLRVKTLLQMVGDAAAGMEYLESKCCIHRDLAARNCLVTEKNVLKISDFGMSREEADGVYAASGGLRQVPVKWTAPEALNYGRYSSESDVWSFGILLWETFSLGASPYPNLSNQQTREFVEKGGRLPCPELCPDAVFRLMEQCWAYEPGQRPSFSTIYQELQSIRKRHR
- method: phosphorylation enrichment, bacterial display (enrichment ratio); higher = better substrate or ligand; peptides without Tyr show the background;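 note: 11-residue human phosphosite peptides and single-mutation variants displayed on the E. coli surface, counted by deep sequencing, each peptide's frequency after selection divided by its frequency in the unselected input library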;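 note: frequency after pTyr selection over input frequency; kinase dosed for 20-30% of maximal phosphorylation in three min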
metric name: phosphorylation enrichment
Numbers only.

Solved cases (8 shown):
chain	phosphorylation enrichment
GTCGGYCSVLG [RAB18_Y202_A198T]	0.488
RSRSSYTHSLN [MYCT1_Y116_G119S]	0.755
SNSAAYSGSVA [PDLIM5_Y382_T381A]	0.566
VLVSQYEKLNA [AMZ2_Y26]	0.732
TTPGPYRSIYF [MPG_Y71]	1
KWKQKYEESQS [MYH6_Y1462_E1457K]	0.887
GDEVEYMLVSF [GCLC_Y53]	1.1
ASPALYRLDLD [TRIL_Y352]	1.16

State recorded phosphorylation enrichment for all listed sequences.
1. QMRLRYLAAEE [CEP120_Y884]
2. VRFVDYVLFRS [FAM189B_Y361_S358F]

1.41
1.1

State recorded phosphorylation enrichment for all listed sequences.
1. GKTQQYECKWY [BCR_Y751_D752E]
2. WHYTFYNELRV [ACTC1_Y93_H90Y]
3. IITVHYVLEES [RYR2_Y4559_A4556T]
4. IGEGTYGQVYK [CDK13_Y716]
5. KIITDYFVDMK [MPP4_Y566_V562I_YF]
6. PLFRVYGLESL [INSR_Y94_L89P]

1.05
1.42
1.22
0.822
1.15
1.43

State recorded phosphorylation enrichment for all listed sequences.
1. IDSTPYGQWYE [RPS8_Y109_R110G]
2. GYRVYYTPDSR [PTPRF_Y451]
3. AALVQYYMEHH [PTPN11_Y80_E76A]
4. ENEGTYVCIAT [ADAMTSL3_Y1365]
5. RFLRGYRQFAF [HLA-A_Y137_D140Y_YF]
6. CTNELYMMMRD [FGFR1_Y730]
7. FPLELYERVRI [PRKCG_Y312_M317I_YF]
8. SYSGEYGGGGG [ZG16_Y30]

1. 1.18
2. 0.768
3. 0.912
4. 1.38
5. 0.908
6. 1.38
7. 1.29
8. 0.685

State recorded phosphorylation enrichment for all listed sequences.
1. LISVSYDDWDY [GRIN2A_Y281]
2. KKHFSYAWPFY [BRDT_Y291]
3. CGTPDYIAPEI [PRKCG_Y521]
4. SGGMDYGMVGG [TNRC6B_Y1382]

[1.92, 0.965, 1.14, 0.574]

State recorded phosphorylation enrichment for all listed sequences.
1. PNEAVYTKMMT [G6PD_Y401]
2. RLAQRYLIWEC [SCN5A_Y694]

0.972
1.66
